Where do the numbers come from? From PubChem BioAssay AID588850.

Test: NF-kB reporter blockers in CF airway cells – cell-based, GFP fluorescence, uHTS, primary screen (AID 588850);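 further: PAF is a Pseudomonas aeruginosa culture filtrate used as stimulus; plate controls were PAF-stimulated DMSO wells for no effect and unstimulated DMSO wells for full effect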
Settings: KKLEB NF-kB-GFP reporter, PAF-induced, GFP fluorescence overnight; at 5 µM; hits give high values
Hit rate of the full screen: of about 360,000 compounds, about 3,100 (0.86%) were called active. Only a selection was taken, and actives are over-represented in it overall.
Listed below: inhibition values for each entry.
Form entry: value (%) — number only.

{"compound": "C#CCN(C[C@@H]1[C@@H](OC(=O)NC2CC2)[C@@H](OC(=O)NC2CC2)Cn2c(=O)ccc(=O)n21)S(=O)(=O)c1ccc(C)cc1", "inhibition (%)": 53.2}
{"compound": "Cc1cccc(NC(=O)Cn2cc(C(=O)c3ccco3)c3ccccc32)c1", "inhibition (%)": -7.8}
{"compound": "O=C(CNC(=O)N1CC(=O)Nc2ccccc21)Nc1ccc(Br)cc1F", "inhibition (%)": -4.5}
{"compound": "O=C(NC1CCN(C(=S)NCc2ccco2)CC1)c1ccc(F)cc1", "inhibition (%)": -0.1}

Input: Entry `CCOC(=O)C1=C(CC)Nc2ccccc2N=C1N` needs its inhibition filled in; supply it.
Output: -14.1

Input: Given `CCOc1ccc2[nH]c(=O)c(CN(CCCO)S(=O)(=O)c3ccc(F)cc3)cc2c1` , respond with its inhibition.
Output: 2.3

Input: Please give the documented inhibition of Oc1c(C(c2cccs2)N2CCN(c3ccc(F)cc3)CC2)sc2ncnn12 (configuration not stated)
Output: 17.4

Input: Identify inhibition associated with the compound `Cc1cc(-c2ccccc2)n2nc(C)c(-c3ccccc3)c2n1`
Output: 5.2

Input: Look up and state reported inhibition for `O=C(Nc1ccc(C(=O)N2CCOCC2)cc1)Nc1cccc(C(F)(F)F)c1`
Output: 55.4

Input: # return recorded inhibition for input Cc1ccc(-c2csc(NC3OC(=O)c4ccccc43)n2)cc1 (configuration not stated)
Output: 81.3

----------
Test: NF-kB reporter blockers in CF airway cells – cell-based, GFP fluorescence, uHTS, primary screen (AID 588850);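 further: PAF is a Pseudomonas aeruginosa culture filtrate used as stimulus; plate controls were PAF-stimulated DMSO wells for no effect and unstimulated DMSO wells for full effect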
Conditions: KKLEB NF-kB-GFP reporter, PAF-induced, GFP fluorescence overnight; at 5 µM; hits give high values
About 3,100 (0.86%) of roughly 360,000 compounds were called active. Shown is part of a subset that was picked to be rich in actives.
attribute_measured: inhibition (%)
Express the result in % but write the number alone.

A selection of reference data follows.
{"molecule": "COc1cccc(-c2nn(-c3ccccc3)cc2/C=C(\\C#N)C(=O)NCCCn2ccnc2)c1", "display_unit": "%", "inhibition": -21.2}
{"molecule": "COCCCNc1ccn2nc(-c3ccc(CC(C)C)cc3)cc2n1", "display_unit": "%", "inhibition": -77.9}

Input: Give recorded inhibition. `CCS(=O)(=O)c1ccc(C(=O)NC)c(Cl)c1Cl`
Output: 4.1

Input: Hello, please tell me recorded inhibition for this one: O=C(NC1(C(F)(F)F)N=C2SCCN2C1=O)c1ccco1 (centres undefined)
Output: 3.6

Input: Supply recorded inhibition for `Cc1oc2c(c1C(=O)N1CCOCC1)C(=O)c1ccccc1C2=O` here.
Output: 72.2

Input: Report measured inhibition; entry is `C[C@H]1CC[C@]2(O[C@@H](CCO)C[C@@H](O)[C@@H]2O)O1`
Output: -22.2

Input: Check the records and state inhibition for O=C(Nc1ncc([N+](=O)[O-])s1)C1COc2ccccc2O1 (centres undefined)
Output: 60.8
